Assay: Miscibility/solubility of additive in cyanoacrylate monomer
Assay type: physicochemical
Settings: activated 2-octyl cyanoacrylate composition, room temperature
metric: Miscibility with 2-octyl cyanoacrylate

CC1=CC(=O)c2ccccc2C1=O [2-methyl-1,4-naphthoquinone] = well-miscible
C/C(=C\CC12OC1(C)C(=O)c1ccccc1C2=O)CCCC(C)CCCC(C)CCCC(C)C (stereo not shown) [Vitamin K1 oxide] = well-miscible

Origin of measurements: patent US9717699B2
